- experimentalTarget: Estrogen receptor (Mus musculus) (UniProt O08537+P19785)
- Sequence (O08537 whole entry, looked up): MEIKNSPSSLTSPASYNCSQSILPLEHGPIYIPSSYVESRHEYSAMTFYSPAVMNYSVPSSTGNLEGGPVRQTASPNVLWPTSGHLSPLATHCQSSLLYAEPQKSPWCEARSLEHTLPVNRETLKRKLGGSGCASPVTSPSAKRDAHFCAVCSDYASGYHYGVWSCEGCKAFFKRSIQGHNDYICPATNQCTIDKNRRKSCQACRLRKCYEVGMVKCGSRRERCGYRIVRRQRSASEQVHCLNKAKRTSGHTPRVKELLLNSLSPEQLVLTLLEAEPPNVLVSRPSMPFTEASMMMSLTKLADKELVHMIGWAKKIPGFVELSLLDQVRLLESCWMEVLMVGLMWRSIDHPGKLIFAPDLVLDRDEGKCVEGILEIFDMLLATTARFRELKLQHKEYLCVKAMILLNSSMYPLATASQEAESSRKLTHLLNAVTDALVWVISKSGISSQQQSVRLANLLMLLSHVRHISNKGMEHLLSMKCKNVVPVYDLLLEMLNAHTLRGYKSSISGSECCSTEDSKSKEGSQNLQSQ
- Sequence (P19785 whole entry, looked up): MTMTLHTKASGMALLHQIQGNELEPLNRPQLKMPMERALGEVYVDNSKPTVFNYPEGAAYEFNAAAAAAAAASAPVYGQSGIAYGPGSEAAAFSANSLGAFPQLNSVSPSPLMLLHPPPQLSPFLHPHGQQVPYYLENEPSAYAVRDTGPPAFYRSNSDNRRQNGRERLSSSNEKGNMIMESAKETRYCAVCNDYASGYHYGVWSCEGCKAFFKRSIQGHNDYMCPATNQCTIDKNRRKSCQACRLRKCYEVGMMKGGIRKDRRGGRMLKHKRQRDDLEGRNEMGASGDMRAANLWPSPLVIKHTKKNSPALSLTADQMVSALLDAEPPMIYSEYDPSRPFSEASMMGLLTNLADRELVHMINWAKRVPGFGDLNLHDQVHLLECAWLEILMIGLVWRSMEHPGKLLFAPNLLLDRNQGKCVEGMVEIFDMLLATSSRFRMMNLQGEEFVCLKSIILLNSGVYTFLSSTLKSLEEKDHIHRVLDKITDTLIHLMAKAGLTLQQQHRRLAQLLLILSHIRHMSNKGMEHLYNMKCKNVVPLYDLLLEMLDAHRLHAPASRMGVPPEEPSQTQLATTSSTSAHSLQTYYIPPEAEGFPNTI
- protocolDetails: Uterotrophic effect in mice as uterine weight(mg) relative to body weight(g) at 2 ug dose
- Format: functional, tissue-based
Below, each entry is listed alongside its reported Relative uterus weight.
reportedProperty: Relative uterus weight

[
  {
    "compound": "CC(=O)Oc1ccc2c(c1)CC(C)n1c-2c(C=O)c2cc(OC(C)=O)ccc21 (stereo not given)",
    "result": 14.8
  },
  {
    "compound": "CCCCCC1Cc2cc(OC(C)=O)ccc2-c2c(C=O)c3cc(OC(C)=O)ccc3n21 (stereo not given)",
    "result": 17.9
  },
  {
    "compound": "CCCCCC1Cc2cc(OC(C)=O)ccc2-c2c(C=O)c3ccc(OC(C)=O)cc3n21 (stereo not given)",
    "result": 16.4
  },
  {
    "compound": "CCC1Cc2cc(OC(C)=O)ccc2-c2c(C=O)c3ccc(OC(C)=O)cc3n21 (stereo not given)",
    "result": 15.9
  },
  {
    "compound": "CC(=O)Oc1ccc2c(c1)CC(C)n1c-2c(C=O)c2ccc(OC(C)=O)cc21 (stereo not given)",
    "result": 19.6
  }
]

---

- experimentalTarget: Estrogen receptor (Mus musculus) (UniProt O08537+P19785)
- protocolDetails: Percent inhibition of estrone-stimulated uterotrophic effect in mice at 10 ug dose
- Type: functional

[
  {
    "molecule": "CCCCCC1Cc2cc(OC(C)=O)ccc2-c2c(C=O)c3ccc(OC(C)=O)cc3n21 (stereo not given)",
    "inhibition": "25%"
  },
  {
    "molecule": "CCC1Cc2cc(OC(C)=O)ccc2-c2c(C=O)c3ccc(OC(C)=O)cc3n21 (stereo not given)",
    "inhibition": "14%"
  },
  {
    "molecule": "CCC1Cc2cc(OC(C)=O)ccc2-c2c(C=O)c3cc(OC(C)=O)ccc3n21 (stereo not given)",
    "inhibition": "22%"
  },
  {
    "molecule": "CCCCCC1Cc2cc(OC(C)=O)ccc2-c2c(C=O)c3cc(OC(C)=O)ccc3n21 (stereo not given)",
    "inhibition": "14%"
  },
  {
    "molecule": "CCCC1Cc2cc(OC(C)=O)ccc2-c2c(C=O)c3ccc(OC(C)=O)cc3n21 (stereo not given)",
    "inhibition": "41%"
  },
  {
    "molecule": "CC(=O)Oc1ccc2c(c1)CC(C)n1c-2c(C=O)c2cc(OC(C)=O)ccc21 (stereo not given)",
    "inhibition": "36%"
  },
  {
    "molecule": "CCCCC1Cc2cc(OC(C)=O)ccc2-c2c(C=O)c3cc(OC(C)=O)ccc3n21 (stereo not given)",
    "inhibition": "17%"
  },
  {
    "molecule": "CC(=O)Oc1ccc2c(c1)CC(C)n1c-2c(C=O)c2ccc(OC(C)=O)cc21 (stereo not given)",
    "inhibition": "14%"
  },
  {
    "molecule": "CCCCC1Cc2cc(OC(C)=O)ccc2-c2c(C=O)c3ccc(OC(C)=O)cc3n21 (stereo not given)",
    "inhibition": "20%"
  },
  {
    "molecule": "CCCC1Cc2cc(OC(C)=O)ccc2-c2c(C=O)c3cc(OC(C)=O)ccc3n21 (stereo not given)",
    "inhibition": "20%"
  }
]

---

- experimentalTarget: Estrogen receptor (Mus musculus) (UniProt O08537+P19785)
- protocolDetails: Uterotrophic effect in mice as uterine weight(mg) relative to body weight(g) at 2 ug dose
- Assay type: functional, tissue-based

[
  {
    "compound": "CCCCC1Cc2cc(OC(C)=O)ccc2-c2c(C=O)c3ccc(OC(C)=O)cc3n21 (stereo not given)",
    "Relative uterus weight": 16.7
  },
  {
    "compound": "CCCC1Cc2cc(OC(C)=O)ccc2-c2c(C=O)c3ccc(OC(C)=O)cc3n21 (stereo not given)",
    "Relative uterus weight": 20.4
  },
  {
    "compound": "CCC1Cc2cc(OC(C)=O)ccc2-c2c(C=O)c3cc(OC(C)=O)ccc3n21 (stereo not given)",
    "Relative uterus weight": 18.2
  },
  {
    "compound": "CCCCC1Cc2cc(OC(C)=O)ccc2-c2c(C=O)c3cc(OC(C)=O)ccc3n21 (stereo not given)",
    "Relative uterus weight": 20.2
  },
  {
    "compound": "CCCC1Cc2cc(OC(C)=O)ccc2-c2c(C=O)c3cc(OC(C)=O)ccc3n21 (stereo not given)",
    "Relative uterus weight": 16.9
  }
]

---

- System: MCF7
- protocolDetails: Inhibition of hormone-sensitive MCF-7 mammary tumor cell proliferation at 1*10e-6 M
- Format: functional, Homo sapiens
Classes (T/C): bin 0 (below 60%), bin 1 (60% to below 90%), bin 2 (90% or more)

[
  {
    "molecule": "CCCC1Cc2cc(OC(C)=O)ccc2-c2c(C=O)c3cc(OC(C)=O)ccc3n21 (stereo unspecified)",
    "categoryLabel": "bin 1"
  },
  {
    "molecule": "CC/C(=C(\\c1ccccc1)c1ccc(OCCN(C)C)cc1)c1ccccc1 [TAMOXIFEN]",
    "categoryLabel": "bin 0"
  },
  {
    "molecule": "CCCCC1Cc2cc(OC(C)=O)ccc2-c2c(C=O)c3ccc(OC(C)=O)cc3n21 (stereo unspecified)",
    "categoryLabel": "bin 0"
  },
  {
    "molecule": "CC(=O)Oc1ccc2c(c1)CC(C)n1c-2c(C=O)c2cc(OC(C)=O)ccc21 (stereo unspecified)",
    "categoryLabel": "bin 2"
  },
  {
    "molecule": "CCC1Cc2cc(OC(C)=O)ccc2-c2c(C=O)c3ccc(OC(C)=O)cc3n21 (stereo unspecified)",
    "categoryLabel": "bin 1"
  },
  {
    "molecule": "CC(=O)Oc1ccc2c(c1)CC(C)n1c-2c(C=O)c2ccc(OC(C)=O)cc21 (stereo unspecified)",
    "categoryLabel": "bin 2"
  },
  {
    "molecule": "CCCCCC1Cc2cc(OC(C)=O)ccc2-c2c(C=O)c3cc(OC(C)=O)ccc3n21 (stereo unspecified)",
    "categoryLabel": "bin 2"
  },
  {
    "molecule": "CCCC1Cc2cc(OC(C)=O)ccc2-c2c(C=O)c3ccc(OC(C)=O)cc3n21 (stereo unspecified)",
    "categoryLabel": "bin 0"
  },
  {
    "molecule": "CCCCC1Cc2cc(OC(C)=O)ccc2-c2c(C=O)c3cc(OC(C)=O)ccc3n21 (stereo unspecified)",
    "categoryLabel": "bin 0"
  }
]

---

- experimentalTarget: Estrogen receptor (Mus musculus) (UniProt O08537+P19785)
- protocolDetails: Uterotrophic effect in mice as uterine weight(mg) relative to body weight(g) at 50 ug dose
- Format: functional, tissue-based
Below, each entry is listed alongside its reported Relative uterus weight.
reportedProperty: Relative uterus weight

[
  {
    "compound": "CCCCC1Cc2cc(OC(C)=O)ccc2-c2c(C=O)c3ccc(OC(C)=O)cc3n21 (centres undefined)",
    "result": 12.3
  },
  {
    "compound": "CC(=O)Oc1ccc2c(c1)CC(C)n1c-2c(C=O)c2ccc(OC(C)=O)cc21 (centres undefined)",
    "result": 18.2
  },
  {
    "compound": "CCCC1Cc2cc(OC(C)=O)ccc2-c2c(C=O)c3cc(OC(C)=O)ccc3n21 (centres undefined)",
    "result": 24.9
  },
  {
    "compound": "CCCCC1Cc2cc(OC(C)=O)ccc2-c2c(C=O)c3cc(OC(C)=O)ccc3n21 (centres undefined)",
    "result": 9.1
  },
  {
    "compound": "CCC1Cc2cc(OC(C)=O)ccc2-c2c(C=O)c3cc(OC(C)=O)ccc3n21 (centres undefined)",
    "result": 20.5
  },
  {
    "compound": "CCCCCC1Cc2cc(OC(C)=O)ccc2-c2c(C=O)c3ccc(OC(C)=O)cc3n21 (centres undefined)",
    "result": 15.8
  },
  {
    "compound": "CC(=O)Oc1ccc2c(c1)CC(C)n1c-2c(C=O)c2cc(OC(C)=O)ccc21 (centres undefined)",
    "result": 24.6
  },
  {
    "compound": "CCCCCC1Cc2cc(OC(C)=O)ccc2-c2c(C=O)c3cc(OC(C)=O)ccc3n21 (centres undefined)",
    "result": 20.2
  },
  {
    "compound": "CCC1Cc2cc(OC(C)=O)ccc2-c2c(C=O)c3ccc(OC(C)=O)cc3n21 (centres undefined)",
    "result": 18.2
  }
]

---

- experimentalTarget: Estrogen receptor (Mus musculus) (UniProt O08537+P19785)
- protocolDetails: Percent inhibition of estrone-stimulated uterotrophic effect in mice at 50 ug dose
- Assay type: functional

[
  {
    "compound": "CCCC1Cc2cc(OC(C)=O)ccc2-c2c(C=O)c3ccc(OC(C)=O)cc3n21 (stereo not given)",
    "inhibition (%)": 35
  },
  {
    "compound": "CCC1Cc2cc(OC(C)=O)ccc2-c2c(C=O)c3ccc(OC(C)=O)cc3n21 (stereo not given)",
    "inhibition (%)": 27
  },
  {
    "compound": "CCCCC1Cc2cc(OC(C)=O)ccc2-c2c(C=O)c3ccc(OC(C)=O)cc3n21 (stereo not given)",
    "inhibition (%)": 8
  },
  {
    "compound": "CCCCCC1Cc2cc(OC(C)=O)ccc2-c2c(C=O)c3ccc(OC(C)=O)cc3n21 (stereo not given)",
    "inhibition (%)": 52
  },
  {
    "compound": "CC(=O)Oc1ccc2c(c1)CC(C)n1c-2c(C=O)c2cc(OC(C)=O)ccc21 (stereo not given)",
    "inhibition (%)": 49
  },
  {
    "compound": "CCCC1Cc2cc(OC(C)=O)ccc2-c2c(C=O)c3cc(OC(C)=O)ccc3n21 (stereo not given)",
    "inhibition (%)": 26
  },
  {
    "compound": "CCCCC1Cc2cc(OC(C)=O)ccc2-c2c(C=O)c3cc(OC(C)=O)ccc3n21 (stereo not given)",
    "inhibition (%)": 18
  },
  {
    "compound": "CCCCCC1Cc2cc(OC(C)=O)ccc2-c2c(C=O)c3cc(OC(C)=O)ccc3n21 (stereo not given)",
    "inhibition (%)": 24
  },
  {
    "compound": "CCC1Cc2cc(OC(C)=O)ccc2-c2c(C=O)c3cc(OC(C)=O)ccc3n21 (stereo not given)",
    "inhibition (%)": 74
  },
  {
    "compound": "CC(=O)Oc1ccc2c(c1)CC(C)n1c-2c(C=O)c2ccc(OC(C)=O)cc21 (stereo not given)",
    "inhibition (%)": 30
  }
]
